# pIC50 values compiled below
biological target: ENaC (Epithelial Sodium Channel) (Mus musculus, UniProt Q61180+Q9WU38+Q9WU39); construct: Mouse kidney M-1 cells were cultivated in DMEM containing 5% FCS and 5 μM dexamethasone; endogenous in cells; test: Ussing Chamber assay (short circuit current, amiloride sensitive I_SC) in M-1 cells; details: Mouse kidney M-1 cells, apical application, 37° C.
Sequence (Q61180 whole entry): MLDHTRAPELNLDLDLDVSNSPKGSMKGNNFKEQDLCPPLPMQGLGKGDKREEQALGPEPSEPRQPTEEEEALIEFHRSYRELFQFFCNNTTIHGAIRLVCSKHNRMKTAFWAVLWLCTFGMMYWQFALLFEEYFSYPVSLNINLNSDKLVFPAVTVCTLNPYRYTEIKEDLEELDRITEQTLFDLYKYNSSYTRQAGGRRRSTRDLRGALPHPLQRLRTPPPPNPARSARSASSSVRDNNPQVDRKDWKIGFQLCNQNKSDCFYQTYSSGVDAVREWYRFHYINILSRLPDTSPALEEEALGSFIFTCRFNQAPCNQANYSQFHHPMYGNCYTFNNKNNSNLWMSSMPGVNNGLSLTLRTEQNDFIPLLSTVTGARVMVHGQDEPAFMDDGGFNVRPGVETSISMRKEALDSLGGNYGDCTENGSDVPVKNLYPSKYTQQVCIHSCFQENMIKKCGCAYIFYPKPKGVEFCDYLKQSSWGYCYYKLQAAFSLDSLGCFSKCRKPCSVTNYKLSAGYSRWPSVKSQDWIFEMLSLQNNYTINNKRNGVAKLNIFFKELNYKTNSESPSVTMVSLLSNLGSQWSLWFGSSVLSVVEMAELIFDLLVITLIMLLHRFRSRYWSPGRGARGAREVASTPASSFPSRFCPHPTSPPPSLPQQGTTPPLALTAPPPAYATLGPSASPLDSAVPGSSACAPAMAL
Sequence (Q9WU38 whole entry): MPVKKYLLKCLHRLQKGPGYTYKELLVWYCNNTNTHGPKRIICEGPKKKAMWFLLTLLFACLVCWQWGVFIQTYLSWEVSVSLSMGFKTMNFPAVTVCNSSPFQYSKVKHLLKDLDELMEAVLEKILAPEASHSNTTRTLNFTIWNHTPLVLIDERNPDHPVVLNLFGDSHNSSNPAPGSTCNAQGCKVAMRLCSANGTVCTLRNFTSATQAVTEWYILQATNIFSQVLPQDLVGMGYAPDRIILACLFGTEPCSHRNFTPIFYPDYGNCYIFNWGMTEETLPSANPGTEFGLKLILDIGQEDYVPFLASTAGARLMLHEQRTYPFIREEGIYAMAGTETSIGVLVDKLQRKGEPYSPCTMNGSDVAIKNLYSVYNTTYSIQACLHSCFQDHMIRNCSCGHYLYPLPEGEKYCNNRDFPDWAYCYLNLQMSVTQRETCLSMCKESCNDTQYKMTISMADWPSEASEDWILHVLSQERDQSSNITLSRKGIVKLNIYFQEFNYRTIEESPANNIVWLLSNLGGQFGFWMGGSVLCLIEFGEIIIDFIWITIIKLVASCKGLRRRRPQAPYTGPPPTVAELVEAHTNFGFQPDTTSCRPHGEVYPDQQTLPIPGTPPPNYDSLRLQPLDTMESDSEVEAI
Sequence (Q9WU39 whole entry): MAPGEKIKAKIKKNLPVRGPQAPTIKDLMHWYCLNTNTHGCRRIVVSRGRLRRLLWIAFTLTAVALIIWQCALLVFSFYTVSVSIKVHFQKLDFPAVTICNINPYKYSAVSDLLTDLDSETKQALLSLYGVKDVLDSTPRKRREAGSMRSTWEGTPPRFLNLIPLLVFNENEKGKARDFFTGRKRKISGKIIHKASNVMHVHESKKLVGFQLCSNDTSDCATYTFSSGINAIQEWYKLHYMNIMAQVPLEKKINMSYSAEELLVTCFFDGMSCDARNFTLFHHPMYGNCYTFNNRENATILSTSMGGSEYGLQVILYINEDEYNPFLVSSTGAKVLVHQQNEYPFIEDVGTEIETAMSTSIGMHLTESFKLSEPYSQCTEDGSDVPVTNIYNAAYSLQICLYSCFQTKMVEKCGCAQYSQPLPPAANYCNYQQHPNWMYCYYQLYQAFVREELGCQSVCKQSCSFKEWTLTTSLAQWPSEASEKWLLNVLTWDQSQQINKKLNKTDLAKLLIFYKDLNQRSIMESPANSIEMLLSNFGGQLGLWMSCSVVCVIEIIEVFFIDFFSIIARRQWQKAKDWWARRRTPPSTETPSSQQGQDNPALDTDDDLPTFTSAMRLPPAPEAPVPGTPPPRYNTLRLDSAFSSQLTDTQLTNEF
pIC50: −log10 of the molar value.
propertyName: pIC50

molecule=CCn1c(CNC(=O)c2nc(Cl)c(N)nc2N)[n+](CC)c2ccc(OCCNC(=O)CN3CCC(NC(=O)OC(C)(C)C)CC3)cc21 subjectoftest="ENaC (Epithelial Sodium Channel) (Mus musculus, UniProt Q61180+Q9WU38+Q9WU39)" propertyname=pIC50 valuemeasured=9.00
molecule=CCn1c(CNC(=O)c2nc(Cl)c(N)nc2N)[n+](CC)c2ccc(OCCNC(=O)CCN(C)C)cc21.Cl subjectoftest="ENaC (Epithelial Sodium Channel) (Mus musculus, UniProt Q61180+Q9WU38+Q9WU39)" propertyname=pIC50 valuemeasured=9.00
molecule=CC[n+]1c(CNC(=O)c2nc(Cl)c(N)nc2N)n(C[C@H](C)O)c2cc(OCCN(CP(C)(C)=O)C(=O)CC(C)C)ccc21.O=C([O-])C(F)(F)F subjectoftest="ENaC (Epithelial Sodium Channel) (Mus musculus, UniProt Q61180+Q9WU38+Q9WU39)" propertyname=pIC50 valuemeasured=9.00
molecule=CCn1c(CNC(=O)c2nc(Cl)c(N)nc2N)[n+](CC)c2ccc(OCCNC(=O)[C@H](C)N)cc21 subjectoftest="ENaC (Epithelial Sodium Channel) (Mus musculus, UniProt Q61180+Q9WU38+Q9WU39)" propertyname=pIC50 valuemeasured=9.40
molecule=CCn1c(CNC(=O)c2nc(Cl)c(N)nc2N)[n+](CCO)c2cc(OCC(=O)N3CCN(C(C)=O)CC3)ccc21 subjectoftest="ENaC (Epithelial Sodium Channel) (Mus musculus, UniProt Q61180+Q9WU38+Q9WU39)" propertyname=pIC50 valuemeasured=8.52
molecule=CCn1c(CNC(=O)c2nc(Cl)c(N)nc2N)[n+](CC)c2cc(C(=O)NC3CCNCC3)c(OCC(=O)NC3CCN(C)CC3)cc21 subjectoftest="ENaC (Epithelial Sodium Channel) (Mus musculus, UniProt Q61180+Q9WU38+Q9WU39)" propertyname=pIC50 valuemeasured=8.00
molecule=CCNC(=O)c1cc2c(cc1OCC(=O)NC1CCN(C(=O)OC(C)(C)C)CC1)n(CC)c(CNC(=O)c1nc(Cl)c(N)nc1N)[n+]2CC subjectoftest="ENaC (Epithelial Sodium Channel) (Mus musculus, UniProt Q61180+Q9WU38+Q9WU39)" propertyname=pIC50 valuemeasured=8.05
molecule=CCOc1cc2c(cc1C(=O)N1CCN(C(=O)Cc3ccccn3)CC1)[n+](CC)c(CNC(=O)c1nc(Cl)c(N)nc1N)n2CC subjectoftest="ENaC (Epithelial Sodium Channel) (Mus musculus, UniProt Q61180+Q9WU38+Q9WU39)" propertyname=pIC50 valuemeasured=8.70
molecule=CCN1CCC(NC(=O)COc2ccc3c(c2)n(CC)c(CNC(=O)c2nc(Cl)c(N)nc2N)[n+]3CC)CC1 subjectoftest="ENaC (Epithelial Sodium Channel) (Mus musculus, UniProt Q61180+Q9WU38+Q9WU39)" propertyname=pIC50 valuemeasured=9.70
molecule=CCCn1c(CNC(=O)c2nc(Br)c(N)nc2N)[n+](C)c2ccc(OCC(=O)N(C)Cc3nc(C)ccc3O)cc21 subjectoftest="ENaC (Epithelial Sodium Channel) (Mus musculus, UniProt Q61180+Q9WU38+Q9WU39)" propertyname=pIC50 valuemeasured=9.00
molecule=CCCCCOc1cc2c(cc1C(=O)N1CCN(C(=O)Cc3ccccn3)CC1)[n+](CC)c(CNC(=O)c1nc(Cl)c(N)nc1N)n2C[C@H](C)O.O=C([O-])C(F)(F)F subjectoftest="ENaC (Epithelial Sodium Channel) (Mus musculus, UniProt Q61180+Q9WU38+Q9WU39)" propertyname=pIC50 valuemeasured=7.47
molecule=CCn1c(CNC(=O)c2nc(Cl)c(N)nc2N)[n+](CC)c2cc(C(=O)NC3CCNCC3)c(OCC(=O)O)cc21 subjectoftest="ENaC (Epithelial Sodium Channel) (Mus musculus, UniProt Q61180+Q9WU38+Q9WU39)" propertyname=pIC50 valuemeasured=7.54
molecule="CCn1c(CNC(=O)c2nc(Cl)c(N)nc2N)[n+](CC)c2ccc(OCCNC(=O)C3CCCN3)cc21 (stereo not shown)" subjectoftest="ENaC (Epithelial Sodium Channel) (Mus musculus, UniProt Q61180+Q9WU38+Q9WU39)" propertyname=pIC50 valuemeasured=9.40
